- assay target: Recombinant STAT3 protein (STAT3 (G127-I722)) (Homo sapiens)
- Construct: Recombinant STAT3 protein (STAT3 (G127-I722))
- Sequence (P40763 127-722): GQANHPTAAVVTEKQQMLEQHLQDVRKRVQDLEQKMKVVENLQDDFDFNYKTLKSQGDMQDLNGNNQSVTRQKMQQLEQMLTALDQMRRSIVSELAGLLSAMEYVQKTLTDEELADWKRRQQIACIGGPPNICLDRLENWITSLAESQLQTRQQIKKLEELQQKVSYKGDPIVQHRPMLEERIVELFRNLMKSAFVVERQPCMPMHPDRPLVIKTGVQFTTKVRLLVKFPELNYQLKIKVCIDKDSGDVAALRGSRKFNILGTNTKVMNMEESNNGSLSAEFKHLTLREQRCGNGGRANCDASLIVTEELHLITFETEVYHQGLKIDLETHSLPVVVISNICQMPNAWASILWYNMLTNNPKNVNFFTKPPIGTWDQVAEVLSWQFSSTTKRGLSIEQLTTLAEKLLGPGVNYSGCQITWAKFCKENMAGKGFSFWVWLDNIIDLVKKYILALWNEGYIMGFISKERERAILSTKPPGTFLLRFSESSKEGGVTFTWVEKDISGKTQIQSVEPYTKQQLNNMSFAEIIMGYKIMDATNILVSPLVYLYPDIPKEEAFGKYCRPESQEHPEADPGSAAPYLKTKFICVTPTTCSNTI
- assay text: STAT3 Fluorescence Polarization (FP) Assay
- Type: binding
- condition details: STAT3 25 nM, probe 5-FAM-GpYLPQTV-NH2 2 nM, 45-minute incubation; read-out: STAT3 (FP assay IC50)
reported metric: IC50

>>> val("O=C(N[C@H]1CCCC[C@H]2CC[C@@H](C(=O)N3CC(N4CCOCC4)C3)N2C1=O)c1cc2cc(C(F)(F)P(=O)(O)O)ccc2s1")
"100 to 1000 nM"
>>> val("CN(C(=O)[C@@H]1CC[C@@H]2CCC[C@H](NC(=O)c3cc4cc(C(F)(F)P(=O)(O)O)ccc4s3)C(=O)N21)c1ccccc1")
"1000 to 10000 nM"
>>> val("O=C(N[C@H]1CCC[C@H]2CC[C@@H](C(=O)NCc3c[nH]c4ncccc34)N2C1=O)c1cc2cc(C(F)(F)P(=O)(O)O)ccc2s1")
"100 to 1000 nM"
>>> val("C[C@H]1C[C@H]2CC[C@@H](C(=O)N3CC[C@@H](c4ccccc4)C3)N2C(=O)[C@@H](NC(=O)c2cc3cc(C(F)(F)P(=O)(O)O)ccc3s2)CC1O (stereo in doubt)")
"100 to 1000 nM"
>>> val("O=C(N[C@H]1CC/C=C\\[C@H]2CC[C@@H](C(=O)N3CC(c4cccnc4)C3)N2C1=O)c1cc2cc(C(F)(F)P(=O)(O)O)ccc2s1")
"< 100 nM"
>>> val("COc1cc(CCN(C)C(=O)[C@@H]2CC[C@@H]3CCCC[C@H](NC(=O)c4cc5cc(C(F)(F)P(=O)(O)O)ccc5s4)C(=O)N32)ccn1")
"1000 to 10000 nM"
>>> val("O=C(N[C@H]1CCCC[C@H]2CC[C@@H](C(=O)N3CC(F)(c4ccccc4F)C3)N2C1=O)c1cc2cc(C(F)(F)P(=O)(O)O)ccc2s1")
"< 100 nM"
>>> val("N#C[C@@H]1CN(C(=O)[C@@H]2CC[C@@H]3CCCC[C@H](NC(=O)c4cc5cc(C(F)(F)P(=O)(O)O)ccc5s4)C(=O)N32)C[C@H]1C1CC1 (relative stereo)")
"100 to 1000 nM"
>>> val("O=C(N[C@H]1CCCC[C@H]2CC[C@@H](C(=O)Nc3ccc4c(c3)CCCS4(=O)=O)N2C1=O)c1cc2cc(C(F)(F)P(=O)(O)O)ccc2s1")
"100 to 1000 nM"
>>> val("O=C(N[C@H]1CCCCC[C@H]2[C@H](O)C[C@@H](C(=O)N3CC(C(=O)N4CCOCC4)C3)N2C1=O)c1cc2cc(C(F)(F)P(=O)(O)O)ccc2s1")
"100 to 1000 nM"
>>> val("O=C(N[C@H]1CC[C@H](N2CCC2)C[C@H]2CC[C@@H](C(=O)N3CC(C(=O)N4CCOCC4)C3)N2C1=O)c1cc2cc(C(F)(F)P(=O)(O)O)ccc2s1")
"100 to 1000 nM"
>>> val("CCO[C@@H]1CC[C@H]2CC[C@@H](C(=O)N3CC(C(=O)N4CCOCC4)C3)N2C(=O)[C@@H](NC(=O)c2cc3cc(C(F)(F)P(=O)(O)O)ccc3s2)C1")
"100 to 1000 nM"
>>> val("O=C(N[C@H]1CCC2(CC2)C[C@H]2CC[C@@H](C(=O)N3CC(c4cccnc4)C3)N2C1=O)c1cc2cc(C(F)(F)P(=O)(O)O)ccc2s1")
"< 100 nM"
>>> val("N#CCC1CN(C(=O)[C@@H]2CC[C@@H]3CCC[C@H](NC(=O)c4cc5cc(C(F)(F)P(=O)(O)O)ccc5s4)C(=O)N32)C1")
"100 to 1000 nM"
>>> val("O=C(N[C@H]1CCC[C@H]2CC[C@@H](C(=O)N3CC(C4CCOCC4)C3)N2C1=O)c1cc2cc(C(F)(F)P(=O)(O)O)ccc2s1")
"100 to 1000 nM"
>>> val("O=C(N[C@H]1CC[C@H](O)C[C@H]2CC[C@@H](C(=O)N3CC(c4cccnc4)C3)N2C1=O)c1cc2cc(C(F)(F)P(=O)(O)O)ccc2s1")
"< 100 nM"
>>> val("O=C(N[C@H]1CCCC[C@H]2CC[C@@H](C(=O)NCc3cc[nH]c(=O)c3)N2C1=O)c1cc2cc(C(F)(F)P(=O)(O)O)ccc2s1")
"100 to 1000 nM"
>>> val("C[C@]1(NC(=O)c2cc3cc(C(F)(F)P(=O)(O)O)ccc3s2)CCCC[C@H]2CC[C@@H](C(=O)N3C[C@H](c4ccccc4)[C@@H](C#N)C3)N2C1=O (relative stereo)")
"100 to 1000 nM"
>>> val("C[C@@]1(O)CC[C@H]2CC[C@@H](C(=O)N3C[C@H](c4ccccc4)[C@@H](C#N)C3)N2C(=O)[C@@H](NC(=O)c2cc3cc(C(F)(F)P(=O)(O)O)ccc3s2)C1 (single isomer, unassigned)")
"100 to 1000 nM"
>>> val("O=C(N[C@H]1CCCC[C@H]2CC[C@@H](C(=O)N3CC(F)(c4ccccc4)C3)N2C1=O)c1cc2cc(C(F)(F)P(=O)(O)O)ccc2s1")
"< 100 nM"
>>> val("CS(=N)(=O)CC1CN(C(=O)[C@@H]2CC[C@@H]3CCCC[C@H](NC(=O)c4cc5cc(C(F)(F)P(=O)(O)O)ccc5s4)C(=O)N32)C1 (stereo partly drawn)")
"< 100 nM"
